molecular target: human APJ receptor (Homo sapiens); construct: expressed in transfected cells; host or cells: HEK293; assay: Intracellular cAMP Accumulation Assay (APJ hcAMP, HTRF); type: cell-based; details: human APJ, cAMP accumulation; potency range class; read-out: hAPJ cAMP EC50 Potency range
Sequence (P35414 whole entry): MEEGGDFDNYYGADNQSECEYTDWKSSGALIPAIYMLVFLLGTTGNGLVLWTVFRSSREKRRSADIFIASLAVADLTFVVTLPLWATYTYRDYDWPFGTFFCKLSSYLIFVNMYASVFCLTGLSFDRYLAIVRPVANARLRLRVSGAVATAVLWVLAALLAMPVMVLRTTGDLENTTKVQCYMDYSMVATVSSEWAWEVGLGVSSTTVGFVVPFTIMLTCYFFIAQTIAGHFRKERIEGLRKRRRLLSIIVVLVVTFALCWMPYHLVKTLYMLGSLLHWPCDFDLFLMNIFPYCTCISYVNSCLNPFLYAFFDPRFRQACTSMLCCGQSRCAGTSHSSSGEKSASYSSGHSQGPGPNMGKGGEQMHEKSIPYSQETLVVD
Catalogue of EC50 readings, one per entry.
OBSERVED PROPERTY: EC50

- MOLECULE: "COc1cccc(OC)c1-n1c(-c2cccc(C)n2)nc(=O)c(C(=O)N2CCC(c3ncc(F)cc3F)C2)c1O (single isomer, unassigned) [Example 235]"
  SYSTEM TESTED: "human APJ receptor (Homo sapiens)"
  ASSAY VALUE: "0.01 to 10 nM"
- MOLECULE: "CCOCc1nc(=O)c(C(=O)N2CCC(c3ccccc3C#N)C2)c(O)n1-c1c(OC)cccc1OC (single isomer, unassigned) [Example 362]"
  SYSTEM TESTED: "human APJ receptor (Homo sapiens)"
  ASSAY VALUE: "0.01 to 10 nM"
- MOLECULE: "CCCCc1nc(=O)c(C(=O)N2CCC(c3ccccc3C#N)C2)c(O)n1-c1c(OC)cccc1OC (single isomer, unassigned) [Example 365]"
  SYSTEM TESTED: "human APJ receptor (Homo sapiens)"
  ASSAY VALUE: "0.01 to 10 nM"
- MOLECULE: "COc1cccc(-c2nc(=O)c(C(=O)N3CCC(c4ncc(F)cc4F)C3)c(O)n2-c2c(OC)cccc2OC)c1 (single isomer, unassigned) [Example 246]"
  SYSTEM TESTED: "human APJ receptor (Homo sapiens)"
  ASSAY VALUE: "0.01 to 10 nM"
- MOLECULE: "CCCCc1nc(=O)c(C(=O)N2CCC(c3ncc(F)cc3F)C2)c(O)n1[C@H](c1cccc(C#N)c1)C1CC1 (stereo partly drawn) [Example 351]"
  SYSTEM TESTED: "human APJ receptor (Homo sapiens)"
  ASSAY VALUE: "0.01 to 10 nM"
- MOLECULE: "COc1cccc(OC)c1-n1c(-c2cccc(Cl)c2)nc(=O)c(C(=O)N2CCC(c3ncc(Cl)cc3F)C2)c1O (single isomer, unassigned) [Example 264]"
  SYSTEM TESTED: "human APJ receptor (Homo sapiens)"
  ASSAY VALUE: "0.01 to 10 nM"
- MOLECULE: "CCc1cccc(CC)c1-n1c(-c2cnn(CC)c2)nc(=O)c(C(=O)N2CCC(c3ncc(Cl)cc3F)C2)c1O (single isomer, unassigned) [Example 313]"
  SYSTEM TESTED: "human APJ receptor (Homo sapiens)"
  ASSAY VALUE: "0.01 to 10 nM"
- MOLECULE: "COc1cccc(OC)c1-n1c(CC2CC2)nc(=O)c(C(=O)N2CCC(c3ccccc3F)C2)c1O (single isomer, unassigned) [Example 226]"
  SYSTEM TESTED: "human APJ receptor (Homo sapiens)"
  ASSAY VALUE: "0.01 to 10 nM"
- MOLECULE: "CCc1cccc(CC)c1-n1c(-c2ccn(CC)n2)nc(=O)c(C(=O)N2CCC(c3ncc(F)cc3F)C2)c1O (single isomer, unassigned) [Example 309]"
  SYSTEM TESTED: "human APJ receptor (Homo sapiens)"
  ASSAY VALUE: "0.01 to 10 nM"
- MOLECULE: "CCCCc1nc(=O)c(C(=O)N2CCC(c3ncc(F)cc3F)C2)c(O)n1-c1c(OC)cccc1OC (single isomer, unassigned) [Example 358]"
  SYSTEM TESTED: "human APJ receptor (Homo sapiens)"
  ASSAY VALUE: "0.01 to 10 nM"
- MOLECULE: "COc1cccc(OC)c1-n1c(-c2csc(C)n2)nc(=O)c(C(=O)N2CCC(c3c(F)cccc3F)C2)c1O (single isomer, unassigned) [Example 270]"
  SYSTEM TESTED: "human APJ receptor (Homo sapiens)"
  ASSAY VALUE: "0.01 to 10 nM"
- MOLECULE: "CCc1cccc(CC)c1-n1c(-c2csc(C(C)C)n2)nc(=O)c(C(=O)N2CCC(c3ncc(F)cc3F)C2)c1O (single isomer, unassigned) [Example 297]"
  SYSTEM TESTED: "human APJ receptor (Homo sapiens)"
  ASSAY VALUE: "0.01 to 10 nM"
